// provenance: patent US20220267464A1

Provide the reported pKd of each item.
Target: T1, hu N(A2-B2)A-avi-His (human, biotin on the avi tag where used biotinylated)
T1 construct: chimeric soluble antigen; also called hu N(A2-B2)A-avi-His B; human CEA (A2 domain)
T1 chain: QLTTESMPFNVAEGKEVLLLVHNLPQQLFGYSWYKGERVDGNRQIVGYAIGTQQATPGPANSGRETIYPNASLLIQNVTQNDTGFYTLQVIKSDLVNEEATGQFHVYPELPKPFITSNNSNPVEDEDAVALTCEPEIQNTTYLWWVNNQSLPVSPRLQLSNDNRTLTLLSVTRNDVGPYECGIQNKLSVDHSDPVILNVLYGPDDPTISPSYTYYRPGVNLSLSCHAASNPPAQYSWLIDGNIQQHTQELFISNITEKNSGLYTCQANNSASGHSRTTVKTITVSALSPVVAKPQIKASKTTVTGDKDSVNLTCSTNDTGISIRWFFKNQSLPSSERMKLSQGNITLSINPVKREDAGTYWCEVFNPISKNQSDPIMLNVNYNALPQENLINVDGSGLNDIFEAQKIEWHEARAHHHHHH
Experiment: SPR (ProteOn XPR36), purified Fab, biotinylated antigen on NLC chip
Answers are plain numbers, as −log10 of the molar value.

In the examples that follow, each entry is paired with its recorded pKd.
[[record]]
binder = "P001.177 Fab (Fab, V domains shown, Fab from E. coli (supernatant or IMAC-purified); Flag tag; also called CEA (P001.177)) VH: EVQLLESGGGLVQPGGSLRLSCAASGFYFTDYYMNWVRQAPGKGLEWLGFISNKANAYTTEYSASVKGRFTISRDKSKNTLYLQMNSLRAEDTATYYCTRDRGLRFYFDYWGQGTTVTVSS VL: EIVLTQSPATLSLSPGERATLSCRASSSVTYIHWYQQKPGQAPRSWIYATSNLASGIPARFSGSGSGTDFTLTISSLEPEDFAVYYCQHWSSKPPTFGQGTKLEIK"
measurement_name = "pKd"
numeric_value = 9.54

[[record]]
binder = "A5H1EL1D Fab (phagemid-derived) (Fab, V domains shown, Flag tag; also called parental humanized clone A5H1EL1D) VH: EVQLLESGGGLVQPGGSLRLSCAASGFTFTDYYMNWVRQAPGKGLEWLGFIGNKANAYTTEYSASVKGRFTISRDKSKNTLYLQMNSLRAEDTATYYCTRDRGLRFYFDYWGQGTTVTVSS VL: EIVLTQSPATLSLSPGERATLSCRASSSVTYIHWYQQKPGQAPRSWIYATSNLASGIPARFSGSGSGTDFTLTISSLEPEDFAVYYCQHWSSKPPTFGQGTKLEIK"
measurement_name = "pKd"
numeric_value = 8.64

[[record]]
binder = "P006.038 Fab (Fab, V domains shown, Fab from E. coli (supernatant or IMAC-purified); Flag tag; also called CEA (P006.038)) VH: EVQLLESGGGLVQPGGSLRLSCAASGFTFTDYYMNWVRQAPGKGLEWLGFIGNKANAYTTEYSASVKGRFTISRDKSKNTLYLQMNSLRAEDTATYYCTRDRGIRFGFDYWGQGTTVTVSS VL: EIVLTQSPATLSLSPGERATLSCRASSSVTYIHWYQQKPGQAPRSWIYATSNLASGIPARFSGSGSGTDFTLTISSLEPEDFAVYYCQHWSSVPPTFGQGTKLEIK"
measurement_name = "pKd"
numeric_value = 9.60


The record that follows has no pKd shown yet.
## Task Which pKd value is on record for P005.103 Fab (Fab, V domains shown, Fab from E. coli (supernatant or IMAC-purified); Flag tag; also called CEA (P005.103)) VH: EVQLLESGGGLVQPGGSLRLSCAASGFTFTDYYMNWVRQAPGKGLEWLGFIGNKANAYTTEYSASVKGRFTISRDKSKNTLYLQMNSLRAEDTATYYCTRDRGIRFYFDYWGQGTTVTVSS VL: EIVLTQSPATLSLSPGERATLSCRASSSVTYIHWYQQKPGQAPRSWIYATSNLASGIPARFSGSGSGTDFTLTISSLEPEDFAVYYCQHWSSISPTFGQGTKLEIK ?
## Result 9.30
